- system under test: T1, wild-type non-luminescent polypeptide (WT fragment of residues 1-156 of NanoLuc)
- T1 chain: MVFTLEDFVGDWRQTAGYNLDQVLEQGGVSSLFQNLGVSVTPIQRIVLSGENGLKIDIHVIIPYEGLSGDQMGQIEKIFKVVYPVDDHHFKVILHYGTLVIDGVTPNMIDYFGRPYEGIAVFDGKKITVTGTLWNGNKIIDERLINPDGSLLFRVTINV
- method description: kinetics (koff/kon)
property name: Kd (mM)
One number for each entry, in mM.

Problem: What measured Kd goes with NVTGYRLFKKISN [NLpep79] ?
Result: 5.58
